EXPERIMENTAL PROTOCOL: Quantitative High-Throughput drug screen in 47 multiple myeloma cell lines against the NCATS MIPE library collection: KMS12PE_JCRB cell viability assay (AID 1918972); further: nearly all actives have a fitted effect of over 30% in size
ASSAY SETUP: KMS12PE myeloma viability, CellTiter-Glo ATP, 48 h; series mostly up to 45.8 µM
Inconclusive results are not listed. Calls of active or inactive are those of the source. The call rests on the fitted dose curve; in most records, active means well fitted cell-killing curve with a large enough effect; inconclusive means small, poorly fitted or top-dose-only effect, or effect the other way; inactive means no such curve, though single readings can be large or run the other way.
Respond only with the outcome that fits, drawn from Y = active, N = inactive

Lookup: Recorded test call requested for CCCCS(=N)(=O)CCC(N)C(=O)O (stereo not given)
Found: N

Lookup: Recorded test call requested for `COc1cc(NCc2ccc3nc(N)nc(N)c3c2C)cc(OC)c1OC`
Found: Y

Lookup: Recorded test call requested for `CC(C)C[C@H](NC(=O)[C@H](CCc1ccccc1)NC(=O)CN1CCOCC1)C(=O)N[C@@H](Cc1ccccc1)C(=O)N[C@@H](CC(C)C)C(=O)[C@@]1(C)CO1`
Found: Y

Lookup: Recorded test call requested for `Cn1nnc2c(C(N)=O)ncn2c1=O`
Found: N

Lookup: Recorded test call requested for O=C(O)C1CCCN(CCC=C(c2ccccc2)c2ccccc2)C1 (stereo not given)
Found: N

* * *

EXPERIMENTAL PROTOCOL: Quantitative High-Throughput drug screen in 47 multiple myeloma cell lines against the NCATS MIPE library collection: VP6_DJ cell viability assay (AID 1919867); further: nearly all actives have a fitted effect of over 40% in size; further: potency means the concentration at half of the fitted maximal effect
ASSAY SETUP: ATP luminescence, 48 h; series mostly up to 45.8 µM
Results filed as inconclusive are left out. Active and inactive are the calls of the source. Calls come from the whole dose curve; as a rule, active = well fitted cell-killing curve with a large enough effect; inconclusive = small, poorly fitted or top-dose-only effect, or effect the other way; inactive = no such curve, though single readings can be large or run the other way.
REPORTED ENDPOINT: Potency

Use these answered entries as a reference point.
>>> observed("CC(=O)Oc1ccccc1C(=O)Nc1ncc([N+](=O)[O-])s1")
"17.1 µM (active)"
>>> observed("C[C@@H]1C[C@H]2[C@@H]3CCC4=CC(=O)C=C[C@]4(C)[C@@]3(Cl)[C@@H](O)C[C@]2(C)[C@@]1(OC(=O)c1ccco1)C(=O)CCl")
"2.96 µM (active)"
>>> observed("CC(C)C[C@H](NC(=O)[C@H](CCc1ccccc1)NC(=O)CN1CCOCC1)C(=O)N[C@@H](Cc1ccccc1)C(=O)N[C@@H](CC(C)C)C(=O)[C@@]1(C)CO1")
"0.001 µM (active)"
>>> observed("COc1nc(N)nc2c1ncn2[C@@H]1O[C@H](CO)[C@@H](O)[C@@H]1O")
"inactive"
>>> observed("NC(=O)c1ccc2[nH]ccc2c1")
"inactive"
>>> observed("O[C@@H](CNC[C@H](O)[C@H]1CCc2cc(F)ccc2O1)[C@@H]1CCc2cc(F)ccc2O1")
"14.8 µM (active)"
>>> observed("O=C(O)c1cccnc1")
"16.6 µM (active)"
>>> observed("Nc1ccc(S(=O)(=O)Nc2ccccn2)cc1")
"inactive"
>>> observed("COc1ccc(C(=O)CC(=O)c2ccc(C(C)(C)C)cc2)cc1")
"2.64 µM (active)"
>>> observed("CC1(C)[C@H](C(=O)O)N2C(=O)C[C@H]2S1(=O)=O")
"inactive"

Lookup: Need Potency, item `NC(N)=NC(N)=NCCc1ccccc1`
Found: 10.5 µM (active)

Lookup: Need Potency, item `CCCCc1oc2ccc(NS(C)(=O)=O)cc2c1C(=O)c1ccc(OCCCN(CCCC)CCCC)cc1`
Found: 7.43 µM (active)

Lookup: Need Potency, item `CNC(=O)c1cc(Oc2ccc(NC(=O)Nc3ccc(Cl)c(C(F)(F)F)c3)cc2)ccn1`
Found: 8.33 µM (active)

Lookup: Need Potency, item `Cc1nnc(C(=O)NC(C)(C)c2nc(C(=O)NCc3ccc(F)cc3)c(O)c(=O)n2C)o1`
Found: inactive

Lookup: Need Potency, item C1CCC(C(CC2CCCCN2)C2CCCCC2)CC1 (stereo not drawn)
Found: 8.33 µM (active)

Lookup: Need Potency, item `CS(=O)(=O)c1ccc([C@@H](O)[C@@H](CO)NC(=O)C(Cl)Cl)cc1`
Found: 16.6 µM (active)

Lookup: Need Potency, item `CCn1cc(C(=O)O)c(=O)c2cc(F)c(N3CCN(C)CC3)cc21`
Found: inactive

Lookup: Need Potency, item `CC(C)(C)NC(=O)[C@H]1CC[C@H]2[C@@H]3CC[C@H]4NC(=O)C=C[C@]4(C)[C@H]3CC[C@]12C`
Found: 0.662 µM (active)
